conditions: in n-butanol, 283.15 K
measured endpoint: solubility (mole fraction)
Lab note: record just the number, no unit beside it.

Task: Provide only the value of recorded solubility (mole fraction) for COC(=O)C1=C(C)NC(C)=C(C(=O)OCC(C)C)C1c1ccccc1[N+](=O)[O-] (stereo unspecified)
Output: 0.00671

====

settings: in acetonitrile, 288.15 K
measured endpoint: solubility (mole fraction)
Lab note: record just the number, no unit beside it.

Task: Provide only the value of recorded solubility (mole fraction) for COC(=O)C1=C(C)NC(C)=C(C(=O)OCC(C)C)C1c1ccccc1[N+](=O)[O-] (stereo unspecified)
Output: 0.012

====

conditions: in cyclohexane, 318.15 K
measured endpoint: solubility (mole fraction)
Lab note: record just the number, no unit beside it.

Task: Provide only the value of recorded solubility (mole fraction) for COC(=O)C1=C(C)NC(C)=C(C(=O)OCC(C)C)C1c1ccccc1[N+](=O)[O-] (stereo unspecified)
Output: 0.000237
